biological target: T1, Human Serum Albumin (human, UniProt P02768 25-609); test: BIAcore SPR
T1 construct: mature; purified protein on CM5 chips for BIAcore; also called HSA; human SA
quantity: pKd
Worth noting: pKd values are minus log10 of concentrations stated in mol/L.

DOM7h-11-65 (other, Vk dAb) VL: DIQMTQSPSSLSASVGDRVTITCRASRPIGTMLSWYQQKPGKAPKLLILAFSRLQSGVPSRFSGSGSGTDFTLTISSLQPEDVATYYCAQAGTHPTTFGQGTKVEIKW: 8.74
DOM7h-11-56 (other, Vk dAb) VL: DIQMTQSPSSLSASVGDRVTISCRASRPIGTMLSWYQQKPGKAPKLLILAFSRLQSGVPSRFSGSGSGTDFTLTISSLQPEDFATYYCAQAGTHPTTFGQGTKVEIKW: 8.80
DOM7h-11-68 (other, Vk dAb) VL: DIQMTQSPSSLSASVGDRVTITCRASRPIGTMLSWYQQKPGEAPKLLILAFSRLQSGVPSRFSGSGSGTDFTLTISSLQPEDFATYYCAQTGTHPTTFGQGTKVEIKW: 7.47
DOM7h-11-15 (other) VL: DIQMTQSPSSLSASVGDRVTITCRASRPIGTMLSWYQQKPGKAPKLLILAFSRLQSGVPSRFSGSGSGTDFTLTISSLQPEDFATYYCAQAGTHPTTFGQGTKVEIKR: 8.85
DOM7h-11-80 (other, Vk dAb) VL: DIQMTQSPSSLSASVGDRVTIFCRASRPIGTMLSWYQQKPGKAPKLLILAFSRLQSGVPSRFSGSGSGTDFTLTISSLQPEDFATYYCAQAGTHPTTFGQGTKVEIKW: 8.68

Form: binder = DOM7h-11-69 (other, Vk dAb) VL: DIQMTQSPSSLSASVGDRVTITCRASRPIGTMLSWYQQKPGKAPKLLILAFSRLQSGVPSRFSGSGSGTDFTLTISSLQPEDFATYYCAQAGVHPTTFGQGTKVEIKR ; pKd = 8.49

Form: binder = DOM7h-11-57 (other, Vk dAb) VL: DIQMTQSPSSLSASVGDRVTITCRASRPIGTMLSWYQQKPGKAPKLLILAFSRLQSGVPSRFSGSGSGTDFTLTISNLQPEDFATYYCAQAGTHPTTFGQGTKVEIKW ; pKd = 8.74

Form: binder = DOM7h-11-67 (other, Vk dAb) VL: DIQMTQSPSSLSASVGDRVTITCRASRPIGTMLSWYQQKPGKAPKLLILAFSRLQSGVPSRFSGSGSGTDFTLTISSLQPEDFATYYCAQAGTHHTTFGQGTKVENKW ; pKd = 9.05

Form: binder = DOM7h-11-79 (other, Vk dAb) VL: DIQMTQSPSSLSASVGDRVTITCRASRPIGTMLSWYQQKPGKAPKLLILAFSRLQSGVPSRFSGSGSGTDFTLTISSLQPEDFATYYCAQTGTHPTTFGQGTKVEIKW ; pKd = 8.23

FYI, the data here is from patent US20130129746A1.
